- System: ACHN renal
- assay notes: NCI-60 one-dose screen, 48 h
- condition description: 10 µM unless noted
- Experimental: Growth inhibition of the ACHN human tumor cell line is measured as a screen for anti-cancer activity. Cells are grown in 96 well plates and exposed to the test compound for 48 hours. Compounds are tested at a single concentration, which is 10^-5 M for most compounds. The reported endpoint is percent growth (GI% or GIPRCNT), where numbers from 0 - 100% represent growth inhibition, and numbers from -100% - 0 represent cell death. For example, a value of 40 represents 60% growth inhibition. […]
About 83,000 compounds went through this panel and 20% of them were active in at least one assay; those are over-represented in the sample as a whole. Active and inactive are the calls of the source. Rule for the calls: active = growth percent below 10; inactive = the rest.
Log the outcome using a class from active, inactive

Please review the following examples before continuing.
INSERT INTO measurements (compound, assayed_target, qualitative_label) VALUES
  ('N=C(N)SCc1cccc2c(CSC(=N)N)cccc12', 'ACHN renal', 'inactive'),
  ('CC(CN)[C@@H]1CC[C@]2(CO)CC[C@]3(C)[C@H](CC[C@@H]4[C@@]5(C)CCC(N)C(C)(C)[C@@H]5CC[C@]43C)[C@@H]12 (stereo partly drawn)', 'ACHN renal', 'inactive'),
  ('Cc1cccc(-n2c(C)nc3ccc(N4CCCNC4=O)cc3c2=O)c1', 'ACHN renal', 'inactive');

Problem: Name the outcome recorded for CCOC(=O)c1c2c(n3ccccc13)C(=O)c1ncccc1C2=O in the assay.
Solution: active

Problem: Name the outcome recorded for CCCCCCCC/C=C\CCCCCCCCOc1ccc(CC(=O)NCC[N+](C)(C)C)cc1 in the assay.
Solution: inactive

Problem: Name the outcome recorded for C#CC#CC#CC#CC#CC#CC#CC#CCC1OCC(COC(=O)O[C@@H](C(=O)O[C@H]2C[C@@]3(O)[C@@H](OC(=O)c4ccccc4)[C@@H]4[C@]5(OC(C)=O)CO[C@@H]5C[C@H](O)[C@@]4(C)C(=O)[C@H](OC(C)=O)C(=C2C)C3(C)C)[C@@H](NC(=O)c2ccccc2)c2ccccc2)O1 (stereo partly drawn) in the assay.
Solution: inactive

Problem: Name the outcome recorded for O=C(N=Nc1c(O)[nH]c2ccccc12)Nc1ccc(Cl)cc1 in the assay.
Solution: inactive

Problem: Name the outcome recorded for Nc1c(C(=O)O)cc(Cl)cc1[N+](=O)[O-] in the assay.
Solution: inactive
